Source: ChEMBL document CHEMBL4513216

PROTOCOL_TEXT: Toxicity liver stage against HepG2, at 10uM
Type: cell-based
Set-up: test concentration 10 uM, cell line HepG2-A16-CD81EGFP
REPORTED_CONDITIONS: human, HepG2-A16-CD81EGFP cells; read-out: INHIBITION
EXPERIMENTAL_READOUT: cytotoxicity at 10 µM (%)
Write down the numeric answer in % and omit the unit.

Below: 8 compounds and their reported cytotoxicity at 10 µM.
COMPOUND	cytotoxicity at 10 µM [%]
c1ccc(-c2noc(CN3CCc4c(ncn4C4CC4)C3)n2)nc1	-5.11
COc1ccc(N2CCN(C(=O)COc3c(C)occc3=O)CC2)cc1	-2.67
Cc1c(C(=O)N2CCCSCC2)nnn1-c1ccccc1Cl	8.31
Cc1cc(C)n(C2CN(CC(=O)NC3CCS(=O)(=O)C3)C2)n1 (stereo unspecified)	-9.41
NC(=O)[C@@H]1Cc2ccccc2CN1CCc1cccs1	0.436
Cc1cc(C(=O)NCc2cnn(C)c2C)nc(N2CCCCCC2)n1	2.01
Cc1nc(-c2ccc(F)cc2)nc2c1CCN(C(=O)CN(C)C)CC2	-1.65
COc1ccc(OCC(=O)NS(=O)(=O)c2cc(C)ccc2C)cc1	7.19

Query `COc1ccc(NC(=O)N(C)Cc2ccsc2)cn1` yields cytotoxicity at 10 µM of -2.36

Query Cc1nc(C(C)C)sc1C(C)N(C)C(=O)c1ccc(=O)n(C)c1 (stereo unspecified) yields cytotoxicity at 10 µM of 1.46

Query CCc1nc(C2CCCN2CC(=O)NCCc2ccsc2)no1 (stereo unspecified) yields cytotoxicity at 10 µM of -2.81

* * *

PROTOCOL_TEXT: Toxicity liver stage against HepG2, at 10uM
Type: cell-based
Parameters: test concentration 10 uM, cell line HepG2-A16-CD81EGFP
REPORTED_CONDITIONS: human, HepG2-A16-CD81EGFP cells; read-out: INHIBITION
EXPERIMENTAL_READOUT: cytotoxicity at 10 µM (%)
Write down the numeric answer in % and omit the unit.

Below: 3 compounds and their reported cytotoxicity at 10 µM.
COMPOUND	cytotoxicity at 10 µM [%]
Cc1cn2nc(N3CCCC3C(=O)N3CCSCC3)sc2n1 (stereo unspecified)	10.9
N#Cc1ccccc1CN1CCC(CN2CCOCC2)C1 (stereo unspecified)	-4.5
Cc1cccc(CNC(Cc2ccsc2)c2nc(C)c(C)s2)n1 (stereo unspecified)	-0.52

Query `Cc1cccc(CN2C[C@@H](CN3CCCN(C)CC3)[C@@H](CO)C2)n1` yields cytotoxicity at 10 µM of -7.57

Query `OCc1csc(N2C[C@@H](CN3CCCCCC3)[C@@H](CO)C2)n1` yields cytotoxicity at 10 µM of 2.65

Query `CN(CCCc1nccn1C)C(=O)C1CCN(C(=O)C2CC2)CC1` yields cytotoxicity at 10 µM of -4.49

Query CCc1noc(C)c1C(=O)N1CCCCC1Cn1cc(C)cn1 (stereo unspecified) yields cytotoxicity at 10 µM of 10.8

Query `O=C([C@H]1COC[C@H]2CN(C3CCOCC3)C[C@H]21)N1CCCCO1` yields cytotoxicity at 10 µM of 5.22

Query `COCCN(Cc1cnn(C)c1)Cc1ccc(C)o1` yields cytotoxicity at 10 µM of -0.0972

Query `Cc1ncc(CNCC(=O)NC2CCCCC2)n1-c1ccccc1` yields cytotoxicity at 10 µM of -4.75

Query `CSCC(=O)N1C[C@@H](C)[C@](O)(C(C)C)C1` yields cytotoxicity at 10 µM of 9.24
